Test system: HCV
Assay summary: Anti-HCV activity (HCV replicon assay)
Assay type: cell-based
Applied conditions: Hepatitis C virus, anti-HCV activity; read-out: EC50
Recorded endpoint: EC50

Query: Item under review: [N-]=[N+]=N[C@H]1C(O)C(CO)OC1n1cc(C(N)=S)c2c(N)ncnc21 (some centres unmarked) [Compound l] . Reported EC50?
Reply: 100 to 1000 nM

Query: Item under review: C[C@@]1(F)[C@H](O)[C@@H](CO)O[C@H]1n1cc(-c2cccs2)c2c(N)ncnc21 [Compound f] . Reported EC50?
Reply: > 5000 nM

Query: Item under review: CCCCCCCCCCCCCCCCOCCCOP1(=O)OC[C@H]2O[C@@H](n3cc(C(N)=S)c4c(N)ncnc43)[C@H](O)[C@@H]2O1 (some centres unmarked) [Compound q] . Reported EC50?
Reply: < 100 nM

Next:
Query: Item under review: Nc1ncnc2c1c(Br)cn2[C@@H]1O[C@H](CO)[C@@H](O)[C@H]1O [Compound r] . Reported EC50?
Reply: 1000 to 5000 nM

Query: Item under review: C[C@@]1(O)[C@H](O)[C@@H](CO)O[C@H]1n1cc(C#N)c2c(N)ncnc21 [Compound j] . Reported EC50?
Reply: 100 to 1000 nM

Query: Item under review: CC(C)=CCNc1ncnc2c1c(/C(N)=N\O)cn2[C@@H]1O[C@H](CO)[C@@H](O)[C@H]1O [Compound a] . Reported EC50?
Reply: < 100 nM

Query: Item under review: CC(C)CCNc1ncnc2c1c(C(=N)NO)cn2[C@@H]1O[C@H](CO)[C@@H](O)[C@H]1O [Compound n] . Reported EC50?
Reply: 1000 to 5000 nM

Query: Item under review: CCCCCCCCCCCCCCCCOCCCOP(=O)(O)OC[C@H]1O[C@@H](n2cc(C(N)=S)c3c(N)ncnc32)[C@H](O)[C@@H]1O [Compound h] . Reported EC50?
Reply: < 100 nM

###

EC50 listing for selected molecules.
Test system: HCV
Assay summary: Anti-HCV activity (HCV replicon assay)
Format: cell-based
Applied conditions: Hepatitis C virus, anti-HCV activity; read-out: EC50

// worked examples, EC50 included
Query: Item under review: CCCCCCCCCCCCCCCCOCCCOP(=O)(O)OC[C@H]1O[C@@H](n2cc(C#N)c3c(N)ncnc32)[C@H](O)[C@@H]1O . Reported EC50?
Reply: < 100 nM

Query: Item under review: COC(=N)c1cn(CC2(F)COC(CO)C2O)c2ncnc(N)c12 (stereo not shown) . Reported EC50?
Reply: > 5000 nM

Query: Item under review: CNC(=O)c1csc(-c2cn([C@@H]3O[C@H](CO)[C@@H](O)[C@H]3O)c3ncnc(N)c23)c1 . Reported EC50?
Reply: 1000 to 5000 nM

Next:
Query: Item under review: C[C@]1(O)C(n2cc(C(N)=S)c3c(N)ncnc32)O[C@H](CO)[C@H]1O (stereo partly shown) . Reported EC50?
Reply: 1000 to 5000 nM

###

Test system: HepG2 cells
Assay summary: Mitochondrial Biogenesis Assay
Type: cell-based
Applied conditions: 7 days, ratio of Complex IV to Frataxin
Recorded endpoint: Mitotoxicity (μM)

Query: Item under review: CC(C)=CCNc1ncnc2c1c(/C(N)=N\O)cn2[C@@H]1O[C@H](CO)[C@@H](O)[C@H]1O [Compound a] . Reported Mitotoxicity (μM)?
Reply: * (up to 20 μM)

Query: Item under review: C[C@]1(O)C(n2cc(C(N)=S)c3c(N)ncnc32)O[C@H](CO)[C@H]1O (stereo partly shown) [Compound d] . Reported Mitotoxicity (μM)?
Reply: * (up to 20 μM)
